Tested on: 2-phenyl-1,4-quinone induced writhing
assayNotes: 2-phenyl-1,4-quinone induced writhing assay in mice (analgesia)
Assay type: in vivo
assayContext: Mus musculus, sc, 0.5 h; mice, subcutaneous, drug administration time 30 minutes; read-out: ED50 (inhibition of writhing)
Please respond with reported ED50 for every item in the list.
Give bare numbers, in mg/kg.

COc1cccc(C23CCC(C2)N(CCc2ccccc2)CC3)c1 (stereo not shown) :: 5.9
CCCCCN1CCC2(c3cccc(OC)c3)CCC1C2 (stereo not shown) :: 5

Give me ED50 for each of these compounds, listed below.
1. COc1cccc(C23CCC(C2)N(C)CC3)c1 (stereo not shown)
2. CCCCN1CCC2(c3cccc(OC)c3)CCC1C2 (stereo not shown)

1: 7.9; 2: 4.6

###

Tested on: 2-phenyl-1,4-quinone induced writhing
assayNotes: 2-phenyl-1,4-quinone induced writhing assay in mice (analgesia)
Format: in vivo
assayContext: Mus musculus, sc, 0.5 h; mice, subcutaneous, drug administration time 30 minutes; read-out: ED50 (inhibition of writhing)
quantity: ED50 (mg/kg)
Numbers only, in mg/kg.

Solved cases (3 shown):
CN1CCC2(c3cccc(O)c3)CCC1C2 (stereo not drawn) :: 9.5
O=C(CCCN1CCC2(c3cccc(O)c3)CCC1C2)c1ccc(F)cc1 (stereo not drawn) :: 0.35
CCCCCN1CCC2(c3cccc(O)c3)CCC1C2 (stereo not drawn) :: 11

Give me ED50 for each of these compounds, listed below.
1. Oc1cccc(C23CCC(C2)N(CC2CC2)CC3)c1 (stereo not drawn)
2. CC(=O)Oc1cccc(C23CCC(C2)N(CCc2ccccc2)CC3)c1 (stereo not drawn)
3. CC(C)=CCN1CCC2(C)c3cc(O)ccc3CC1C2C (stereo not drawn) [pentazocine, reference compound]

6
6.1
4.8
